// provenance: patent US8288382B2

# TESTED_TARGET: Axl (Homo sapiens)
# Construct: endogenous in cells
# Sequence (P30530 26-894): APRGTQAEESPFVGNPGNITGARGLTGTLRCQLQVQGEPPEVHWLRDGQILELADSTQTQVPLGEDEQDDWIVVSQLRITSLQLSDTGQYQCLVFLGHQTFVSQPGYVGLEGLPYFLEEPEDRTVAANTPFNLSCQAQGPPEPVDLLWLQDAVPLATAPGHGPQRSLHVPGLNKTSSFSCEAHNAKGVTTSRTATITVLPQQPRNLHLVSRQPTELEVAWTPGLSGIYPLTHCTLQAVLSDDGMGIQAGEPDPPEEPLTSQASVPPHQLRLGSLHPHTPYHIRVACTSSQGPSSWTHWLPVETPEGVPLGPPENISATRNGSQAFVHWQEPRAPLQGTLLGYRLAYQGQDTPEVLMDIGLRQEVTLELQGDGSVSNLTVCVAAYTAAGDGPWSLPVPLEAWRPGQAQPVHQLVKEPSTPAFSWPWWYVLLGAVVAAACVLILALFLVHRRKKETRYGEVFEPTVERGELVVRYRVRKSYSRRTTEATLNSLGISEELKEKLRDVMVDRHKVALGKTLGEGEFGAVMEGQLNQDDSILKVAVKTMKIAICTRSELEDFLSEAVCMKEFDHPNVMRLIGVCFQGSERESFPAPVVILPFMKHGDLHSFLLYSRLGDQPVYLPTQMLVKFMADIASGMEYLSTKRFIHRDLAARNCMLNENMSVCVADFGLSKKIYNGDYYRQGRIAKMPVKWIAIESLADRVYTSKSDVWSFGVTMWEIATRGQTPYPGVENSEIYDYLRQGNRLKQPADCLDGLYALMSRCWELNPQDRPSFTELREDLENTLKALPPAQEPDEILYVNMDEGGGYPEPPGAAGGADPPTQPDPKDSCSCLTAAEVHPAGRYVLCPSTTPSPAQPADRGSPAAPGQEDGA
# ASSAY_EXPLANATION: Phospho-Akt In-Cell Western Assay (inhibition of Axl activity)
# CONDITION_DETAILS: Hela cells, stimulated by Axl-antibody cross-linking, phospho-Akt chemiluminescence normalized to relative cell number
pIC50: −log10 of the molar value.
QUANTITY_NAME: pIC50

Examples from the recorded data:
>>> print(df.to_string())
                                   compound  quantity_name        result
0  COc1cc2ncnc(-c3sc(Nc4ccc(N5CCN(C)CC5)cc4)nc3N)c2cc1OC [Compound 11]          pIC50  5.00 to 6.00
1  Nc1nc(Nc2ccc(OCCN3CCCC3)cc2)sc1-c1ncnc2ccccc12 [Compound 5]          pIC50  5.00 to 6.00
2  COc1cc(Nc2nc(N)c(-c3ncnc4ccccc34)s2)cc(OC)c1OC [Compound 6]          pIC50        < 4.70

For each of the items listed, what is its pIC50?
1. Nc1nc(Nc2ccc(OCCN3CCCC3)cc2)sc1-c1cnc2ccccc2n1 [Compound 4]
2. COc1ccc(Nc2nc(N)c(-c3ccccn3)s2)cc1 [Compound 2]
3. COc1cc(Nc2nc(N)c(-c3cnc4ccccc4n3)s2)cc(OC)c1OC [Compound 3]
4. Nc1nc(Nc2ccc(OCCN3CCCC3)cc2)sc1-c1nc2ccccc2s1 [Compound 9]
5. COc1cc2ncnc(-c3sc(Nc4ccc(N5CCOCC5)cc4)nc3N)c2cc1OC [Compound 10]
6. Nc1nc(Nc2ccc(OCCN3CCCC3)cc2)sc1-c1nccc2ccccc12 [Compound 8]

a:
5.00 to 6.00
< 4.70
5.00 to 6.00
5.00 to 6.00
5.00 to 6.00
< 4.70

q: # lookup: Axl (Homo sapiens) pIC50, key = COc1cc2ncnc(-c3sc(Nc4ccc(OCCN5CCCC5)cc4)nc3N)c2cc1OC [Compound 1]
a: 5.00 to 6.00

----------
Exercise: state measured pIC50 for each of the compounds provided.
# TESTED_TARGET: Axl (Homo sapiens)
# Construct: endogenous in cells
# ASSAY_EXPLANATION: Phospho-Akt In-Cell Western Assay (inhibition of Axl activity)
# CONDITION_DETAILS: Hela cells, stimulated by Axl-antibody cross-linking, phospho-Akt chemiluminescence normalized to relative cell number
# Method: The compounds of the invention were tested in the following assay for their ability to inhibit Axl activity. Phospho-Akt In-Cell Western Assay […]
pIC50: −log10 of the molar value.

                                   compound        result
0  Nc1nc(Nc2ccc(N3CCOCC3)cc2)sc1-c1nccc2ccccc12 [Compound 7]  4.70 to 5.00
1  COc1cc2ncnc(-c3sc(Nc4ccc(OCCN5CCCC5)c(Cl)c4)nc3N)c2cc1OC [Compound 14]  5.00 to 6.00
2  COc1cc2ncnc(-c3sc(Nc4ccc(N5CCN(C6CC7CCC6C7)CC5)cc4)nc3N)c2cc1OC (stereo not shown) [Compound 13]        < 4.70

# context switch: different compound, same pIC50
q: Answer with reported pIC50 of Nc1nc(Nc2ccc(N3CCN(C4CC5CCC4C5)CC3)cc2)sc1-c1ncnc2ccsc12 (stereo not shown) [Compound 12]
a: 5.00 to 6.00
